Just for reference, PubChem BioAssay (NCI) is where these values come from.

# Test system: NCI/ADR-RES ovarian
# assayComment: NCI tumour cell line growth inhibition, 48 h
observationType: TGI (µM)
Response body: numeric value in µM, unit text excluded.

{"compound": "CC1=CP(=O)(c2c(C(C)C)cc(C(C)C)cc2C(C)C)CCC1Cl (stereo not given)", "unitText": "µM", "TGI": 40.2}

Kindly consider the entry below.
Inquiry: So what's the measured TGI for this one? CC(C)c1ccccc1SCc1cc(=O)cc(CSc2ccccc2C(C)C)o1
Reply text: 41.5

* * *

Reported TGI values are given for each entry in this list.
# System: SK-MEL-2 melanoma
# assayComment: NCI tumour cell line growth inhibition, 48 h

{"compound": "CC(=O)OC1=CC2(OC(C)=O)CC(C)(C)C1C1C(=O)C=CC(=O)C12 (stereo unspecified)", "reportedResult": "> 100 µM"}
{"compound": "Cc1cc(S(=O)(=O)Nc2n[nH]c(N)n2)c(Cl)cc1Cl", "reportedResult": "> 10 µM"}
{"compound": "O=C1/C(=C/c2ccc(O)cc2)COc2ccc(O)c(O)c21", "reportedResult": "38.6 µM"}
{"compound": "Cc1[nH]c2cc(F)ccc2c1-c1nc2c3cccnc3c3ncccc3c2[nH]1", "reportedResult": "1.75 µM"}
{"compound": "COc1ccccc1C1(c2c(OC)c(=O)c2=O)SCCCS1", "reportedResult": "> 100 µM"}

Kindly consider the entry below.
Inquiry: So what's the measured TGI for this one? C[C@@H]1CC(=O)C[C@@H]2CC[C@H]3[C@@H]4CC[C@H](OC(=O)c5cccc6cc7ccccc7nc56)[C@H]4CC[C@@H]3[C@H]21
Reply text: 38 µM
